- method-notes: neutral red assay (NRA), drug-induced cytotoxicity
- Type: cell-based, human
- assay-context: human; single treatment; mock-infected HFFs, 7 d; mean ± SD; read-out: CC50
property-measured: CC50 at 7 d (nM)
Value expressed in nM; do not type the unit.

Per the record, CC(C)c1cnn2c(NCc3ccccc3)cc(NC[C@H]3CCNC[C@@H]3O)nc12 [samuraciclib] has CC50 at 7 d of 500

----------
- Test system: HCMV AD169-GFP
- method-notes: microbe, parasite or virus in culture
- assay-context: Human betaherpesvirus 5, AD169, parental HCMV AD169-GFP, in parallel with ΔUL97 mutant (Figure 5A)
property-measured: EC50 (nM)
Value expressed in nM; do not type the unit.

Per the record, CC(C)Nc1nc2cc(Cl)c(Cl)cc2n1[C@H]1O[C@@H](CO)[C@H](O)[C@@H]1O [MBV, maribavir] has EC50 of 220

----------
- Test system: mock-infected primary human foreskin fibroblasts (HFFs)
- method-notes: neutral red assay (NRA), drug-induced cytotoxicity
- Assay type: cell-based
- assay-context: single treatment; mock-infected HFFs, 7 d; mean ± SD
property-measured: CC50

Per the record, CC(C)c1cnn2c(NCc3ccccc3-n3cccn3)nc(OC3CCCNC3)nc12 (stereo not shown) has CC50 of > 10 µM

----------
- method-notes: neutral red assay (NRA), drug-induced cytotoxicity
- Type: cell-based, human
- assay-context: human, mock-infected primary human foreskin fibroblasts (HFFs); single treatment; mock-infected HFFs, 7 d; mean ± SD; read-out: CC50
In this section we review reported CC50 at 7 d values for a set of molecules.
Value expressed in µM; do not type the unit.

Use the examples below as a reference point.
molecule | u | measured-number
CC(C)(C)c1cnc(CSc2cnc(NC(=O)C3CCN(CC(=O)NCCOCCOCCOCCNc4cccc5c4C(=O)N(C4CCC(=O)NC4=O)C5=O)CC3)s2)o1 (stereo not drawn) | µM | 0.14
CC(=O)N[C@@H]1CCC[C@H](C(=O)Nc2cc(-c3cnn4c3CC(C)(C)C4)c(Cl)cn2)C1 | µM | 0.35
CN1CCC(c2c(O)cc(O)c3c(=O)cc(-c4ccccc4Cl)oc23)C1CO (stereo not drawn) | µM | 1.6

Please examine the following record next.
Per the record, Cc1c(Br)c(Br)c2c3c1nc(N1CCNCC1)n3CCC2 has CC50 at 7 d of 5.9

----------
- method-notes: neutral red assay (NRA), drug-induced cytotoxicity
- Assay type: cell-based, human
- assay-context: human
property-measured: CC50 at 7 d

Per the record, CCc1cnn2c(NCc3ccc[n+]([O-])c3)cc(N3CCCC[C@H]3CCO)nc12 [dinaciclib] has CC50 at 7 d of < 100 nM

Origin of the recorded values: paper PMC8910733
